molecular target: Torsin-1A (Homo sapiens); experiment: torsin A binders from cell lysate, primary screen, small-molecule microarray, wild-type, 635/667 nm (AID 1149); conditions: COS7 hTOR1A-WT lysate, 635 nm fluorescence, higher = more signal
Assign classes using reported composite z-score values and the ranges low band: < -0.1; middle band: ≥ -0.1 and < 0.6; high band: ≥ 0.6, please.

Record excerpt, results attached:
-- ask Categorize the following entry: CCCCCN1CC=CC23O[C@@H]4C=CCOC(=O)[C@@H]4[C@H]2C(=O)N(CCCO)[C@@H]3C1=O (some centres undefined)
-- reply high band

-- ask Dear colleague, I would appreciate it if you could identify the bin for `O=C1C[C@@](C(=O)NC2CC2)(c2ccc([N+](=O)[O-])cc2)[C@@H](c2ccc(CO)cc2)N1CC12CC3CC(CC(C3)C1)C2` and reply at your convenience.
-- reply middle band

-- ask Category of `COc1ccc(C#Cc2ccc3c(c2)[C@]2(C(=O)N3)[C@H](C(=O)NC[C@H](O)c3ccccc3)[C@H]3C(=O)O[C@H](c4ccccc4)[C@H](c4ccccc4)N3[C@@H]2c2ccc(OCCO)cc2)cc1` , please.
-- reply middle band

-- ask Determine which band this compound sits in: CCOC(=O)C1=CCC(C(C)(C)C)N(S(=O)(=O)c2ccc(C)cc2)C1 (centres undefined)
-- reply high band

-- ask Which category does the recorded composite z-score put `CCOC(=O)C[C@H]1[C@H](OC(=O)c2ccc(-c3ccccc3)cc2)[C@@H](NC(=O)c2ccc(-c3ccccc3)cc2)c2cc(OCCCO)ccc2N1C(=O)Cc1ccc(OC)cc1` in?
-- reply low band

-- ask Sort `COc1ccc(C#Cc2ccc3c(c2)[C@]2(C(=O)N3)[C@H](c3ccc(O)cc3)N3[C@H](c4ccccc4)[C@H](c4ccccc4)OC(=O)[C@H]3[C@@H]2C(=O)N2CCCCCCC2)cc1` into one of the categories.
-- reply high band

-- ask Band for `COCCOC(=O)N1C(=O)[C@@]2(c3cc(C#CCNC(N)=O)ccc31)[C@H](C(=O)N1CCc3cc(OC)c(OC)cc3C1)[C@H]1C(=O)O[C@H](c3ccccc3)[C@H](c3ccccc3)N1[C@@H]2c1ccc(OCCO)cc1` ?
-- reply low band

-- ask GET /class?item= CCCCCCCCCCC(O)C1C=CC2C(=O)N(Cc3ccccc3)C(=O)C2N1n1cnnc1 (centres undefined)
-- reply middle band

-- ask Please classify: `O=C(CS)NCCCCCCNC(=O)[C@H]1C[C@H]2C(=O)NCC(=O)N2[C@H]1c1ccc(O)cc1`
-- reply low band

-- ask Sort into band: `COCC(=C=CC[C@@H](O)c1ccc(CO)o1)CCO`
-- reply low band

Others:
-- ask Given `[N-]=[N+]=NCc1ccccc1[C@H]1OC(c2ccc(OCCCO)cc2)=N[C@@]1(CCS(=O)(=O)c1ccccc1)C(=O)N1CCOCC1` , name the class its composite z-score places it in.
-- reply high band

-- ask Given `COC(=O)[C@@]1(Cc2ccccc2)[C@H]2c3cc(C(=O)N4CCCC4)n(C)c3C[C@H]2CN1C(=O)c1ccccc1` , name the class its composite z-score places it in.
-- reply low band

-- ask Pick a category. Item: `Cc1ccc(S[C@]2(C(=O)NCC(C)C)CC(=O)N(Cc3ccccc3)[C@@H]2c2ccc(CO)cc2I)cc1`
-- reply middle band

====

tested on: Lefty1; assay: Lefty1 binders on small-molecule microarrays, primary screen, biochemical, small-molecule microarray, 635/667 nm fluorescence (AID 1139); conditions: small-molecule microarray binding, fluorescence 635/667; higher = more signal
readout type: composite z-score
Format: numeric value only, no unit, no commentary.

-- ask Check the records and state composite z-score for CN1C(=O)C2C=CC(C(O)c3ccccn3)N(Nc3ccccc3)C2C1=O (centres undefined)
-- reply 0.125

-- ask State its composite z-score: CN1CCC(CCCO)=CC1c1ccc(CN2CCCC2)cc1 (centres undefined)
-- reply 1.57

-- ask Tell me its composite z-score given `COC(=O)C[C@H]1O[C@]2(C(=O)N(Cc3ccccc3)c3ccc(NC(C)=O)cc32)[C@@H](C)[C@@H]1[Si](C)(C)c1ccc(OC)cc1` as the entry.
-- reply 0.68

-- ask Input `CCCC[C@H]1OB(O)C[C@H]2C1=C(C)C[C@H]1C(=O)N(Cc3ccccc3)C(=O)[C@H]12` , output reported composite z-score.
-- reply 0.63

-- ask Provide only the value of recorded composite z-score for `C=CCOC(=O)[C@H]1[C@@H]2C(=O)O[C@@H](c3ccccc3)[C@@H](c3ccccc3)N2[C@@H](c2ccc(OCCOC(=O)[C@@H]3C[C@@H]4C(=O)NCC(=O)N4[C@@H]3c3ccc(O)cc3)cc2)[C@]12C(=O)Nc1ccccc12`
-- reply 1.18

-- ask Look up and report measured composite z-score for this entry: `O=C1C[C@]2(c3ccc([N+](=O)[O-])cc3)C(=O)N(CC(F)(F)F)c3cc(CO)ccc3[C@H]2N1CC12CC3CC(CC(C3)C1)C2`
-- reply 0.551

Shift focus to the following entry.
-- ask Give composite z-score for CS(=O)(=O)CCOC(=O)C1=CC(c2ccc(CO)cc2)=CC(C2CC2)N(Cc2cc3c(cc2Br)OCO3)C=C1C(=O)OCCS(C)(=O)=O (centres undefined)
-- reply 1.09
